Protocol Summary: soluble on expression in E. coli; label from the status in PepcDB or PDB records
Endpoint Name: soluble on expression in E. coli

sequence=MSLGIATFAVVDLETTGNQLDYDEIIQIGITFVRQNQVIDTYHSMIRTDLEIPPFIQALTSIEEEMLVQAPYFNEVADDIYQLIKDCVFVAHNISFDLNFIKKAFEKCNIQFKPKRVMDTLELFKIAFPTDKSYQLSALAESHHIPLNNAHRADEDATTTAKLMIKAFEKFEQLHEGHHHHHH endpoint_result=soluble
sequence=MSDILLGKLATEFKTVKAMVEVYCHDHHGTKDALCSECRELLEYAEVRLDRCPYGEEKPTCNKCPIHCYKPEPKEQMRLVMRYSGPRMLLKHPILAVRHLLHEKREVPEKPAANASNRHKRINAERDT endpoint_result="not soluble"
sequence=GSQEEDLPRPSISAEPGTVIPLGSHVTFVCRGPVGVQTFRLERESRSTYNDTEDVSQASPSESEARFRIDSVSEGNAGPYRCIYYKPPKWSEQSDYLELLVKEAAA endpoint_result=soluble
sequence=MTNSIRIGTRKSPLALIHTNLVIQQIKQFFPDINCEIVPIITSGDLIQNKPLYDIGGKALFLKEIEQALLDKKIDLAVHSLKDVPGRMPEPLVIAAVLEREDPRDVFVCLKYKSIEELPQNAVIGSSAVRRKAFIQKIRPDLKVTVFRGNVDSRIKKLMTGEVDATILAYTGLKRLEVFNPEYCHLIEYSQMLPCIGQGVIAVEIRKDDNAMLEICNQINHLPTFELIKPERAFLEYLDANCRTPIAAYSQYLDANPRHLSKLAYREVLEGNTEALATAAYKSNRTDASTGLTYKLPLEVEFGKVSNIQTNFMLGNLDGSKITFHTETTNIKTSTEAGIKAAKMMLEAICK endpoint_result=soluble
sequence=MKLDIKKDLKNIAWHCTMCGGCCDSPSVSKKDVANIAGFLKIPFDEVVKKYLVNFDGMTGRLKTSKEKCIFLDENNKCKIYRVRPIICRLRPYSVQIKDQNLVLTYDGWFLENCKGLFMGDLDPDEEYYKHAETVLKYLGEEENTPEEFFEKAKKRLKKSKKLEHHHHHH endpoint_result=soluble
sequence=MGSDKIHHHHHHMINLSKKLIRQVAQANAKFGLIKDGDRVLLGLSGGKDSLALAHLLNRMQAHAPFKFELEAVTLSYGMGEDYSHLHAHCEEHGIKHSVLDSNIYEVSGDTIRENSSFCSYFSRMRRGALYTYALEKGFNKLAIAHHLDDAAESFFMNFIHNGALRTLAPIYQSKRGITVIRPLIFVRERQLRDNATQNELSVIGNEFCPGMKLSEKNVKFPHAREEAKQLLANLEKDHPKLFTSLKTAFANLHTESFWLQKA endpoint_result="not soluble"
sequence=MAHHHHHHMNDDNTLALLYEGINLIFDKWTILRLAVTNNWGGINSEDKKKKLIEYVHNFVTNNNAKNKLCDYLRDEMSVLFNVDIEDHSDIEIADLILDLYQNLKKKNYDILEKIKNIQIYDISCSQEKNLIQNYEQGDEENMEDEYSSSNYSEYSNEESLDKE endpoint_result=soluble

* * *

Protocol Summary: soluble on expression in E. coli; label from the status in PepcDB or PDB records
Endpoint Name: soluble on expression in E. coli

sequence=MRPNLRFYVQTINDIVKTTEDIGEVMNPYYEEVRQAIDKNKVNDLTAERIAEIQAKFKEGTEKYELMLKKVGTLKPTPQVLGIHKKFQHAYTEYVAGCNEMILATDPETGIDADLFNASEEKQDQATDELTFAITRMSNILLKK endpoint_result="not soluble"
sequence=MQSEKIAQLKAALQNFSASNSDLFDYALEEEKAKVRKRALLLLDQRARSVYELTNRLISADFDPNIVEYVVEDLVRANLLNDENFSREWVRQRRQRRGKSRQALTRELRDKGIKSEIIADVVGDIQPEDEQDIARELAYKKVRSLKKEPCDYPEYQKVLRRTVGVLARRGFSQSMALEIAREAIDARIDEIRR endpoint_result="not soluble"
sequence=MSLAQFTTNPQRFDPYKNFKFRIKWGADYVAGVSKISGLKRTTEVVKHREGGDPSSSRKSPGRTEYEAITMERGVTHDVAFEQWANKVWNYGSGLGKEVSLADFRKDLVIEVYNEAGQAAMRYKVFRCWVSEFQSMSDLDANGNAVLIQHLKLETEGWERDYDLVEPKEGTFTEPAEGHHHHHH endpoint_result=soluble
sequence=MYEIPWSKPVNINMLDGRCRTVVGPLDAMHCLQSEWPVRDGAYYGCAIRACNAALKRRKRPEDARAAFIAALREAFLTVVPMQEEGHGPRPLE endpoint_result="not soluble"
sequence=SLPTLVTTQASDIDGSTLLSSQKGSGLGDCDSDARWTWDGRRFVPTSTSTSGLCRLVAAGGAWELPTLVTEVKSSP endpoint_result=soluble
sequence=MSLGKIRFGIVGTSNIANIFLRAASRVKDFELVAVYSRNLEKAREFGTLYGASIFFDDLEQMAKSKDIDAVYIASPNALHSKQTITCLKHKKHVLCEKSLASNLKEVKSMIKTAKDNNVLLMEAMRITCVPNFKAVKENLYKIGKIRRFFGSYCQYSSRYDKYKNGIIENAFKKELSNGALMDIGVYCIHPMVNLFGAPKTVKAVSHILQTGVDGEGSAVFQYDDMDAIIQYSKVADSYIPSEIQGEEGSIIIEKLNLFEKAIIKYRDGREEDISIPKEKAEEKPREIEGMYYELVEFISLINNNKIESNINSHENSIIVMEIMDEIRRQSSIVYPADSEGHHHHHH endpoint_result=soluble
sequence=MRGSHHHHHHGSIEGRMEKINYLLPEESAEMTLNQVKSLRQIEGRLRKLFSLKNYQEVMPPSFEYTQLYTALESNGKTFNQEKMFQFIKHEGQSITLRYDFTLPLVRLYSQIKDSTSARYSYFGKIFRKEKRHKGRSTENYQIGIELFGESADKSELEILSLALQVIEQLGLNKTVFEIGSAKFFQRLCQLADGSTELLTELLLKKDLSGLNAFIEKNNFSKELRGLLKEIFITNELSRLENLVTNTKDDVLISSFDQLKEFSEKLSMIKPIIIDLGMVPKMDYYTDLMFKAYSSAANQPILSGGRYDQLLSNFQEEAFAIGFCCHMDTILKALERQELEEDND endpoint_result=soluble
sequence=MGSDKIHHHHHHMRKWLLGVTAALALTALAACGTESSSTSGEEDQDVTIGYFPNLDHAAAIVGKEKGFFAEELGEEKVEFTHFPNGNDFIEALSTGSIDIGYVGPGPAINYYLTGGDVVVLGSAANGATLIVARDGSGIDTLDDFDGKSFCTPGNGCTHNVQLEIMLKELGLESNRVGGTVEHQSRIAPSNMVAMFEQGQIDAAAAPEPWGTYLVEELGAHVVAEWNDVFLGEELASVVVVTTREFLENHPEQVEAFLRAHVKSVEFAQEDVDATLETVNDALFDLTQNRLPEDVLYKAWERMAVTTDTYPDALQAWADASYELKFMDEDPNLDGFVDTSLLDSILSE endpoint_result="not soluble"
sequence=DEICKNQYLYRINQENYVLFSFDIFDTLISRNIAKPSAVFLIMKQKMRNMDFPLNLVKNFDRIRVEVEQYYYRNVCKNKYEDTNFDEIYNLLQQNFSLSFQQKEELMKLEINTEKETLYPIKKNIELVEELIKNEKRVVLISDMYFSSSIIRTFLNKFSPIFNNIPIYMSSEFRLKKNSGNLFKAILNLEKVDPKKWIHCGDNWVGDYLKPSNLEISTNFYINQLLPYEEFALNRNSLDMDLQKIIGISKKIR endpoint_result="not soluble"
sequence=MGSDKIHHHHHHMLKIKTSNLRPGIKLGKDIYSYDSQLLLTSGSTITQEHLDSFARRNIEEVFILDESPRMKPERDFEDVYQDALEVVNSFMVGAMLGSPLDFQEIDKTVDLLREQAFDAIDLFRQMRLMKNKGEYLFTHSINVSLLCILIGRWLKCDRNTIRELGIAGLLHDLGKVFIENDILNKPGKLTDQEYEKIKKHTVLGYNFICQNPDMNLEVANAALMHHERVDGSGYPSGLKGQLNFYAAVVAVADVYDAITSAHSYADKRSPYSAAEILWQESFGKLDARITKVFYDKITNFYVGNKVLLSNKKEGIVIYVDPFQPTRPIVMVEDEFYNLALDRSITIRDIID endpoint_result="not soluble"
sequence=MKNKLLFMMLTILGAPGIAAAAGYDLANSEYNFAVNELSKSSFNQAAIIGQAGTNNSAQLRQGGSKLLAVVAQEGSSNRAKIDQTGDYNLAYIDQAGSANDASISQGAYGNTAMIIQKGSGNKANITQYGTQKTAIVVQRQSQMAIRVTQR endpoint_result="not soluble"
sequence=MENSIEAYLADSREKVTLGTVVDCFKGKAVSSKVVPGDVGLINLSDMGTLGIQYHQLRTFQMDRRQLLRYLLEDGDVLIASKGTLKKVCVFHKQNRDVVASSNITVLRPQKLLRGYYIKFFLDSPIGQALLDVADHGKDVINLSTKELLDIPIPVIPLVKQDYLINHYLRGLTDYHRKLNRAEQEWEYIQNEIQKGLG endpoint_result=soluble
sequence=MGSDKIHHHHHHMRFEEAGCHGEFIQADLTKLPFSEPKFDVIFSEGVLHHTDSTEKAIKYLTTLLIPGGHFLFYVYKTKAPIREFTDDYVRNQLINMDDSQAWNELRSLTLLGKILGDLNIEVEIPEPILLLGIPAGRINIQRLFYWYICKAFYNPEWTIDEMNHVNFDWYRPLNCHRHTPEEIMTWCNQAGLKIERMNVQEAGITVVAKKE endpoint_result="not soluble"
